Target: CYP3A4 (Homo sapiens, UniProt P08684)
Sequence (P08684 whole entry): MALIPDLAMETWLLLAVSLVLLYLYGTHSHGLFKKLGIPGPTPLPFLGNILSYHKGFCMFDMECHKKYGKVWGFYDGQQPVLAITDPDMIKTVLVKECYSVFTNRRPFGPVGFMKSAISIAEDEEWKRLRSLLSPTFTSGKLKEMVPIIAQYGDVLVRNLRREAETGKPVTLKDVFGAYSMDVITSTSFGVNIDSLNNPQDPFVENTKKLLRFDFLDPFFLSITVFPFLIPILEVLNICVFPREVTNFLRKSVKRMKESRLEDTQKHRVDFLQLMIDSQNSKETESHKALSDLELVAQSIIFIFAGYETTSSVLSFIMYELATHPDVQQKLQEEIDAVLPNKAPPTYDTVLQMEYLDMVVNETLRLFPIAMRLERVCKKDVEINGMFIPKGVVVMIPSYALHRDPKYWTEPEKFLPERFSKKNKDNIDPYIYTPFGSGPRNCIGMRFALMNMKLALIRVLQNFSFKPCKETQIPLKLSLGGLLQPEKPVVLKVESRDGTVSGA
Assay: Inhibition of CYP3A4 in human liver microsomes assessed as enzyme-mediated metabolite formation at 0.3 uM using midazolam as substrate incubated for 5 mins followed by NADPH addition measured after 30 mins by LC-MS/MS analysis relative to control
Assay type: ADME
Design: scale not given: the % may be the effect or the level left
Conditions: probe midazolam, read-out: Activity
QUANTITY: activity at 0.5 h, 0.3 µM (%)
Return type: number; implicit unit %.

Field activity at 0.5 h, 0.3 µM (system: CYP3A4 (Homo sapiens, UniProt P08684)) for entry `CCCCCCCC(=O)CCc1ccc(O)c(OC)c1` = 103
